tested on: Clostridium ragsdalei strain P11; assay: Growth of strain P11 on organic and gaseous substrates as sole carbon and energy sources; format: cell-based; conditions: strain P11; growth on substrate as sole carbon and energy source; final OD600
PROPERTY LABEL: Substrate utilization, C. ragsdalei

MOLECULE: O=C[C@H](O)[C@H](O)CO [Erythrose]
TESTED SYSTEM: Clostridium ragsdalei strain P11
PROPERTY LABEL: Substrate utilization, C. ragsdalei
OBS VALUE: −
--
MOLECULE: N#C[C@H](O[C@@H]1O[C@H](CO[C@@H]2O[C@H](CO)[C@@H](O)[C@H](O)[C@H]2O)[C@@H](O)[C@H](O)[C@H]1O)c1ccccc1 [Amygdalin]
TESTED SYSTEM: Clostridium ragsdalei strain P11
PROPERTY LABEL: Substrate utilization, C. ragsdalei
OBS VALUE: −
--
MOLECULE: OC[C@H]1O[C@@](CO)(O[C@H]2O[C@H](CO)[C@@H](O)[C@H](O)[C@H]2O)[C@@H](O[C@H]2O[C@H](CO)[C@@H](O)[C@H](O)[C@H]2O)[C@@H]1O [Melizitose]
TESTED SYSTEM: Clostridium ragsdalei strain P11
PROPERTY LABEL: Substrate utilization, C. ragsdalei
OBS VALUE: −

###

tested on: Clostridium ragsdalei strain P11; assay: Growth of strain P11 on organic and gaseous substrates as sole carbon and energy sources; type: cell-based; conditions: strain P11; growth on substrate as sole carbon and energy source; final OD600

COMPOUND: OC[C@H]1O[C@@H](O[C@H]2[C@H](O)[C@@H](O)C(O)O[C@@H]2CO)[C@H](O)[C@@H](O)[C@H]1O (stereo partly drawn)
Substrate utilization, C. ragsdalei: −

COMPOUND: OC[C@H]1O[C@H](OCC2O[C@@H](O)[C@H](O)[C@@H](O)[C@@H]2O)[C@H](O)[C@@H](O)[C@H]1O (stereo partly drawn)
Substrate utilization, C. ragsdalei: −

COMPOUND: O=C(O)CO
Substrate utilization, C. ragsdalei: −

COMPOUND: O=C(O)/C=C\C(=O)O
Substrate utilization, C. ragsdalei: −

COMPOUND: O=C[C@@H](O)[C@H](O)[C@H](O)CO
Substrate utilization, C. ragsdalei: −

COMPOUND: OC[C@@H](O)[C@@H](O)[C@H](O)[C@@H](O)CO
Substrate utilization, C. ragsdalei: −

COMPOUND: O=C(O)CCC(=O)C(=O)O [alpha-ketoglutarate]
Substrate utilization, C. ragsdalei: −

COMPOUND: CC(=O)[O-].[Na+] [Na-Acetate]
Substrate utilization, C. ragsdalei: −

COMPOUND: O=C[O-].[Na+] [Na-Formate]
Substrate utilization, C. ragsdalei: −

COMPOUND: O[C@H]1[C@H](O)[C@@H](O)[C@H](O)[C@@H](O)[C@H]1O
Substrate utilization, C. ragsdalei: −

COMPOUND: O=C([O-])CCC(=O)[O-].[Na+].[Na+] [Na-Succinate]
Substrate utilization, C. ragsdalei: −

COMPOUND: OCc1ccccc1O[C@@H]1O[C@H](CO)[C@@H](O)[C@H](O)[C@H]1O
Substrate utilization, C. ragsdalei: −

COMPOUND: C[C@H](O)[C@H](O)[C@@H](O)[C@@H](O)C=O
Substrate utilization, C. ragsdalei: −
